src = the supplement of paper PMC11061612

system: 8-MG-BA (Glioblastoma); assay: Bliss excess, mean over the matrix (fraction); higher = more synergy;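 further: after 72 h of two-drug dosing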
YES means recorded Bliss excess is 0.05 or above; NO means it is below 0.05.

Before answering, review these 3 worked examples.
compound	class
CN(CCO)CC[C@H](CSc1ccccc1)Nc1ccc(S(=O)(=O)NC(=O)c2ccc(N3CCC([C@@H](O)c4ccccc4-c4ccc(Cl)cc4)CC3)cc2)cc1S(=O)(=O)C(F)(F)F [AZD4320] + Cn1cnc2c(F)c(Nc3ccc(Br)cc3Cl)c(C(=O)NOCCO)cc21 [Selumetinib] (first compound max 1 µM, 7x7, partner max 3 µM)	YES
C=CCn1c(=O)c2cnc(Nc3ccc(N4CCN(C)CC4)cc3)nc2n1-c1cccc(C(C)(C)O)n1 [AZD1775] + O=C(c1cc(Cc2n[nH]c(=O)c3ccccc23)ccc1F)N1CCN(C(=O)C2CC2)CC1 [Olaparib] (first compound max 1 µM, partner max 10 µM)	NO
CC(=O)c1c(C)c2cnc(Nc3ccc(N4CCNCC4)cn3)nc2n(C2CCCC2)c1=O [Palbociclib] + Cc1c2c(nn1C)CSCc1cc(n(C)n1)CSc1cc(c3ccccc3c1)OCCCc1c(C(=O)O)n(C)c3c-2c(Cl)ccc13 [AZD5991] (first compound max 10 µM, 7x7, partner max 1 µM)	NO

Exercise: I'd appreciate it if you could say whether COc1cccc(OCCCN)c1-c1cc(Nc2cnc(C#N)cn2)n[nH]1 [Prexasertib] + C[C@@H]1COCCN1C2=NC(=NC(=C2)C3(CC3)[S@](=N)(=O)C)C4=C5C=CNC5=NC=C4 [AZD6738] (first compound max 1 µM, 7x7, partner max 10 µM) has Bliss excess at least equal to 0.05.
Key: NO

Exercise: Given Cc1c2c(nn1C)CSCc1cc(n(C)n1)CSc1cc(c3ccccc3c1)OCCCc1c(C(=O)O)n(C)c3c-2c(Cl)ccc13 [AZD5991] + C1CN(CCC1(C(=O)N[C@@H](CCO)C2=CC=C(C=C2)Cl)N)C3=NC=NC4=C3C=CN4 [Capivasertib] (first compound max 1 µM, 7x7, partner max 3 µM) , state whether its Bliss excess is at least 0.05.
Key: YES

Exercise: Determine whether measured Bliss excess meets or exceeds 0.05 for C[C@@H]1COCCN1c1cc(C2([S@](C)(=N)=O)CC2)nc(-c2ccnc3[nH]ccc23)n1 [AZD6738] + O=C(c1cc(Cc2n[nH]c(=O)c3ccccc23)ccc1F)N1CCN(C(=O)C2CC2)CC1 [Olaparib] (first compound max 10 µM, 7x7, partner max 10 µM)
Key: YES

Exercise: Hello, I need to know if Cc1nc(Nc2ncc(C(=O)Nc3c(C)cccc3Cl)s2)cc(N2CCN(CCO)CC2)n1 [Dasatinib] + CC(=O)Nc1cccc(-n2c(=O)n(C3CC3)c(=O)c3c(Nc4ccc(I)cc4F)n(C)c(=O)c(C)c32)c1 [Trametinib] (first compound max 2 µM, 7x7, partner max 1 µM) has measured Bliss excess not below 0.05. Thanks!
Key: NO

Exercise: Test whether the compound CC(=O)c1c(C)c2cnc(Nc3ccc(N4CCNCC4)cn3)nc2n(C2CCCC2)c1=O [Palbociclib] + CN(CC[C@H](CSC1=CC=CC=C1)NC2=C(C=C(C=C2)S(=O)(=O)NC(=O)C3=CC=C(C=C3)N4CCC(CC4)[C@H](C5=CC=CC=C5C6=CC=C(C=C6)Cl)O)S(=O)(=O)C(F)(F)F)CCO [AZD4320] (first compound max 10 µM, 7x7, partner max 1 µM) records Bliss excess of 0.05 or higher.
Key: NO
